B1: HDV Ribozyme (parent)
chain: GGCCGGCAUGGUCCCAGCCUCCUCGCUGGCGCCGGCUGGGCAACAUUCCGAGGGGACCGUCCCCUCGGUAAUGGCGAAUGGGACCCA

- Variants of: B1
- Assay Procedure: self-cleavage, relative activity (ratio to wild type); higher = more cleavage; co-transcriptional
Property Name: self-cleavage
Write no unit; give the number alone.

Below, 3 variants whose answers are already recorded.
Mutations: U20G G35C
self-cleavage: 0

Mutations: G31U C36G
self-cleavage: 0.0906

Mutations: C21G G53A
self-cleavage: 0.0511

Qu. Report self-cleavage for U12A C85A
Ans. 0.383

Qu. Report self-cleavage for U65A A87G
Ans. 0.877

Qu. Report self-cleavage for G11A A77U
Ans. 0.109

Qu. Report self-cleavage for G40A C58U
Ans. 1.18

Qu. Report self-cleavage for G10U G55U
Ans. 0.787

Qu. Report self-cleavage for C62A G67C
Ans. 0.78

Qu. Report self-cleavage for G28A C63G
Ans. 0.148

Qu. Report self-cleavage for G28C A45C
Ans. 0.0594

Qu. Report self-cleavage for C22G G82U
Ans. 0.0652

Qu. Report self-cleavage for C19A U79C
Ans. 0.107

Qu. Report self-cleavage for G54U G68A
Ans. 0.81

Qu. Report self-cleavage for G10C U69A
Ans. 0.831

Qu. Report self-cleavage for G11A C13A
Ans. 0.0791
